Tested on: HEK293-EV cells
Assay: MTT cell viability assay, HEK293-EV
Format: cell-based, human
Details: Homo sapiens, 48 h, first-phase EC50 where biphasic
observation type: EC50
The answer consists of two parts: a number and, after it, its unit.

Worked cases, answers included:
# structure, measurement target, observed result
records = [
    ("Nc1nc2nc[nH]c2c(=S)[nH]1", "HEK293-EV cells", "16 µM"),
    ("Sc1ncnc2nc[nH]c12", "HEK293-EV cells", "18.8 µM"),
]

Then this molecule:
Short answer please: EC50, HEK293-EV cells, entry `CSc1ncnc2nc[nH]c12`
45 µM

====

Target: mENBT1 (Mus musculus)
Construct: Oligonucleotides corresponding to the coding region of SLC43A3 (NM_001278201) or slc43a3 (NM_021398); expressed in transfected cells; HEK293-mslc43a3
Sequence (A2AVZ9 1-502): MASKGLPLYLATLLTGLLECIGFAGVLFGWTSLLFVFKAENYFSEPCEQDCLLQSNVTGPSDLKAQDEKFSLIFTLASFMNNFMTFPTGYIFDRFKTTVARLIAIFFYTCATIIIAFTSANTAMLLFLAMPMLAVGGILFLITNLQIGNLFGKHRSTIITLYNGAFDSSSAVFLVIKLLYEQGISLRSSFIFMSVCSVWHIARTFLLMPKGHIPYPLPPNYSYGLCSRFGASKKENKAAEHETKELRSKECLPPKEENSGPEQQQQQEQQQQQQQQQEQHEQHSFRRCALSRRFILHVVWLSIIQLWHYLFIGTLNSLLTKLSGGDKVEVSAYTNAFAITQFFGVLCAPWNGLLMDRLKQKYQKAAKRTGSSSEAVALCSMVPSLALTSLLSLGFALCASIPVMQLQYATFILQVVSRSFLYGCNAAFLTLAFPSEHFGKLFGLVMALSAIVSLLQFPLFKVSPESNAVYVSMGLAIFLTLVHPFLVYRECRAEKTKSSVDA
Assay: Inhibition of ENBT1-mediated substrate uptake in HEK293-mslc43a3 cells
Format: cell-based
observation type: Ki (µM)
The reply should be a number in µM, with the unit left off.

Form field: reported Ki of Nc1ncnc2[nH]cnc12 [adenine, Adenine]
51

====

Target: hENBT1 (Homo sapiens)
Construct: Oligonucleotides corresponding to the coding region of SLC43A3 (NM_001278201) or slc43a3 (NM_021398); expressed in transfected cells; HEK293-hSLC43A3
Sequence (Q8NBI5 whole entry): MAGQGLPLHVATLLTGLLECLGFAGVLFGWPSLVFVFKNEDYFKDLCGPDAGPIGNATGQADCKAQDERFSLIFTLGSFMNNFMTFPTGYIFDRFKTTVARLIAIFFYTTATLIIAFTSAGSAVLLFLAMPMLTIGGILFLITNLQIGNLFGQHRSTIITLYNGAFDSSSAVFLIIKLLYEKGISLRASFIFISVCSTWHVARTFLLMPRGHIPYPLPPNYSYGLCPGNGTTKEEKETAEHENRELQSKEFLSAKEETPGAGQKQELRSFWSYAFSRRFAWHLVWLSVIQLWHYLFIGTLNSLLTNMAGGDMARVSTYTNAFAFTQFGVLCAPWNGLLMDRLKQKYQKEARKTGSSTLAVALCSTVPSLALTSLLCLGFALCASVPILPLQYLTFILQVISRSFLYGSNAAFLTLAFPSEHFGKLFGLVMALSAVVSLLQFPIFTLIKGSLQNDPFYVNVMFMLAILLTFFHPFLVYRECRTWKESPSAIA
Experiment: Inhibition of ENBT1-mediated substrate uptake in HEK293-hSLC43A3 cells
Assay type: cell-based
Settings: HEK293-hSLC43A3, 30 μM [3H]adenine, 2 seconds, Cheng-Prusoff; read-out: Ki for inhibition of ENBT1-mediated [3H]adenine uptake
observation type: pKi
Conceptually, pKi converts a concentration in mol/L into minus its log10.

Form field: reported pKi of Sc1ncnc2nc[nH]c12 [6-MP, 6-Mercaptopurine]
2.23
